Measured values drawn from paper PMC6253839 for this set.

assay: Cytotoxicity assay, resazurin; type: cell-based; settings: human, MRC-5 SV2 cells (human fetal lung fibroblasts)
Assign IC50 at 72 h to each entry below.
The reply should contain only the number, in mg/L.

Problem: Fill blank: measured IC50 at 72 h of the molecule CC(C)=CCC/C(C)=C/CC/C(C)=C/CC/C(C)=C/C[n+]1cn(CCC#N)c2nc[n-]/c(=N\OCc3ccccc3)c21 [Compound 1h] is ____.
Result: 3.5

Problem: Fill blank: measured IC50 at 72 h of the molecule CC(C)=CCC/C(C)=C/CC/C(C)=C/CC/C(C)=C/C[n+]1cn(C)c2nc[n-]/c(=N\OC(C)(C)C)c21 [Compound 1f] is ____.
Result: 0.26

Problem: Fill blank: measured IC50 at 72 h of the molecule CC1=C(CC/C(C)=C/CC/C(C)=C/C[n+]2cn(C)c3nc[n-]/c(=N\OCc4ccccc4)c32)C(C)(C)CCC1 [Compound 1l] is ____.
Result: 0.53

Problem: Fill blank: measured IC50 at 72 h of the molecule CC(C)=CCC/C(C)=C/CC/C(C)=C/CC/C(C)=C/Cn1cnc2ncnc(NOCc3ccccc3)c21 [Compound 4c] is ____.
Result: 1.5

Problem: Fill blank: measured IC50 at 72 h of the molecule CO/N=c1\[n-]cnc2c1[n+](C/C=C(\C)CCCC(C)CCCC(C)CCCC(C)C)cn2C (centres unmarked) [Compound 1j] is ____.
Result: 0.21

Problem: Fill blank: measured IC50 at 72 h of the molecule CO/N=c1\[n-]cnc2c1[n+](C/C=C(\C)CC/C=C(\C)CC/C=C(\C)CCC=C(C)C)cn2C [Compound 1d] is ____.
Result: 2
